Target: Prolyl endopeptidase (Homo sapiens)
Sequence (P48147 whole entry): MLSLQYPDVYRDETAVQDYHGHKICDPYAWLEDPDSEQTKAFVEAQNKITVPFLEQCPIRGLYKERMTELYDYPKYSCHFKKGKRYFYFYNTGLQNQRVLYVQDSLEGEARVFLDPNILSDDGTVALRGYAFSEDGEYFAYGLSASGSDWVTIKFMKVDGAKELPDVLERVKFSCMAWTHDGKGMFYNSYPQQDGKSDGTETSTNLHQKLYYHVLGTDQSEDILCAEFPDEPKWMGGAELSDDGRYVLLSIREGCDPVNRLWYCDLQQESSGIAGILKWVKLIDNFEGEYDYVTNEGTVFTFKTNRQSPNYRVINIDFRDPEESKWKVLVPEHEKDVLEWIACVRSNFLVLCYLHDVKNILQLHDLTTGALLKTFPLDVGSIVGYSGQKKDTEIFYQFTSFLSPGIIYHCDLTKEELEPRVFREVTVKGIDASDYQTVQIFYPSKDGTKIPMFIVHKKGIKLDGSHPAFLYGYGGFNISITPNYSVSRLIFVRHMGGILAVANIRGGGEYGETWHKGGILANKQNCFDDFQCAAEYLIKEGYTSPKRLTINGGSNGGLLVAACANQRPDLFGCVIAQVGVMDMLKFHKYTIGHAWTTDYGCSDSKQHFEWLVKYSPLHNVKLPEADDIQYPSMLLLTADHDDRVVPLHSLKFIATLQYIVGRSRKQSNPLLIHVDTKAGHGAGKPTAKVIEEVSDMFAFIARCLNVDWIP
Test: Inhibition of recombinant human POP pre-incubated for 30 mins before addition of ZGP-pNA substrate by absorbance assay
Endpoint: pKi
Answers are plain numbers, as −log10 of the molar value.

[
  {
    "Smiles record": "N#C[C@@H]1CC(F)(F)CN1C(=O)c1cccc2c1C(=O)N(Cc1ccccc1)C2",
    "Assayed target": "Prolyl endopeptidase (Homo sapiens)",
    "Reported result": 5.48
  }
]

Param item = N#C[C@@H]1C[C@H](F)CN1C(=O)c1cccc2c1C(=O)N(Cc1ccccc1)C2 ; retrieve measured pKi.
6.77

---

Biological target: Prolyl endopeptidase FAP (Homo sapiens) (UniProt Q12884)
Sequence (Q12884 whole entry): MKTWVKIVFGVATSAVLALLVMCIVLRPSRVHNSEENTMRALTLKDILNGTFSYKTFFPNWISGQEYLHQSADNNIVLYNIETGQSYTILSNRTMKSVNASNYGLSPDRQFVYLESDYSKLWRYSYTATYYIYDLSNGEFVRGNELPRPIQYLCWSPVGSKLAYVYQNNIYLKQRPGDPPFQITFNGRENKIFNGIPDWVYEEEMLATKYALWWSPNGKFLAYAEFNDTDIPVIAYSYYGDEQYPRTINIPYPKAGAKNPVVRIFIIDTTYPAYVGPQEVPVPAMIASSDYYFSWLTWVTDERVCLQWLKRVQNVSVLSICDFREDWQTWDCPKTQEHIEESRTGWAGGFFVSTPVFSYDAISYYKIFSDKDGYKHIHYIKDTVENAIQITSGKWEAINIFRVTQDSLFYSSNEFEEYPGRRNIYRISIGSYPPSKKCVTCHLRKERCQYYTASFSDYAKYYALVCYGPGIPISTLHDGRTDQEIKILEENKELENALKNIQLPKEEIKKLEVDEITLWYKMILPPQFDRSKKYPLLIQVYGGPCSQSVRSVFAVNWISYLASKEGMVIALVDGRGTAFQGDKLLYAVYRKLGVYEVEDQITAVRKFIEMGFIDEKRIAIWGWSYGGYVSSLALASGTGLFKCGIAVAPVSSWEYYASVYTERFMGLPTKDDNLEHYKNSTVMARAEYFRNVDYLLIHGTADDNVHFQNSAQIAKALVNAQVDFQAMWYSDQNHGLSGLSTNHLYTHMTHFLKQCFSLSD
Test: Inhibition of human recombinant FAP at 100 uM using fluorogenic DPP substrate1 relative to control
Peptide text beside a SMILES is read from it. * marks the point of attachment. Cbz = O=C(OCc1ccccc1)*
Endpoint: inhibition

Completed entries (count: 3):
[
  {
    "Compound": "N#C[C@@H]1CCCN1C(=O)c1cccc2c1C(=O)N(Cc1ccccc1)C2",
    "Reported result": "20%"
  },
  {
    "Compound": "O=C[C@@H]1CCCN1C(=O)[C@@H]1CCCN1C(=O)OCc1ccccc1 (Cbz-Pro-Pro-aldehyde)",
    "Reported result": "< 5%"
  },
  {
    "Compound": "CC1(C)[C@H]2C[C@@H]3OB([C@@H]4CCCN4C(=O)c4cccc5c4C(=O)N(Cc4ccccc4)C5)O[C@]3(C)[C@@H]1C2",
    "Reported result": "< 5%"
  }
]

# per-item lookup of inhibition; items listed below
1. O=C(c1cccc2c1C(=O)N(Cc1ccccc1)C2)N1CC[C@@H](F)C1
2. O=C(c1cccc2c1C(=O)N(Cc1ccccc1)C2)N1CCCC1

1. < 5%
2. < 5%

---

Target: Prolyl endopeptidase FAP (Homo sapiens)
Assay: Inhibition of human recombinant FAP at 100 uM using fluorogenic DPP substrate1 relative to control
Endpoint: inhibition

[
  {
    "Smiles record": "O=C(c1cccc2c1C(=O)N(Cc1ccccc1)C2)N1CC[C@H](F)C1",
    "Assayed target": "Prolyl endopeptidase FAP (Homo sapiens)",
    "Reported result": "< 5%"
  },
  {
    "Smiles record": "O=C[C@@H]1CCCN1C(=O)c1cccc2c1C(=O)N(Cc1ccccc1)C2",
    "Assayed target": "Prolyl endopeptidase FAP (Homo sapiens)",
    "Reported result": "80%"
  },
  {
    "Smiles record": "N#C[C@@H]1C[C@H](F)CN1C(=O)c1cccc2c1C(=O)N(Cc1ccccc1)C2",
    "Assayed target": "Prolyl endopeptidase FAP (Homo sapiens)",
    "Reported result": "< 5%"
  }
]

// each molecule listed below needs its inhibition
1. N#C[C@@H]1C[C@@H](F)CN1C(=O)c1cccc2c1C(=O)N(Cc1ccccc1)C2
2. N#C[C@@H]1CC(F)(F)CN1C(=O)c1cccc2c1C(=O)N(Cc1ccccc1)C2

< 5%
< 5%

The measured values listed here are drawn from ChEMBL document CHEMBL4334469.
